Source of measurements: patent US12509460B2

Here the recorded efflux ratio at 120 min, 5 μM is given for each entry.
Test system: MDR1
assay: Blood-brain-barrier (BBB) penetration potential via MDCK-MDR1 permeability assay
cond: dog, MDCK-MDR1, pH 7.4, MDCK-MDR1: Efflux, efflux ratio
Write the number on its own, no unit after it.

Enquiry: For the compound CN(c1ccc(-c2cc3ccncc3cc2O)nn1)[C@H]1C[C@@H]2CC[C@@H](N2)[C@H]1F (single isomer, unassigned) [Compound 87B] , give its measured efflux ratio at 120 min, 5 μM value.
Return: 9

Enquiry: For the compound CN(c1ccc(-c2ccc(-c3cnccn3)cc2O)nn1)[C@@H]1C[C@H]2CCC[C@H](N2)[C@@H]1F [Compound 24A] , give its measured efflux ratio at 120 min, 5 μM value.
Return: 13

Enquiry: For the compound CN(c1ccc(-c2cc3c(=O)n(C)ccc3cc2O)nn1)[C@H]1C[C@@H]2CC[C@@H](N2)[C@H]1F [Compound 83B] , give its measured efflux ratio at 120 min, 5 μM value.
Return: 31

* * *

Test system: MDR1-MDCK cell monolayers
assay: Blood-brain-barrier (BBB) penetration potential via MDCK-MDR1 permeability assay
cond: B-A
assay endpoint: MDCK-MDR1: % Recov B-A (%)
Respond with the bare value in %.

Some solved entries appear below for comparison.
compound	measured target	reported value
CN(c1ccc(-c2cc3oc(C(=O)N4CCC4)cc3cc2O)nn1)[C@H]1C[C@@H]2CC[C@@H](N2)[C@H]1F [Compound 112B]	MDR1-MDCK cell monolayers	81
Cc1nc2cc(-c3ccc(N(C)[C@H]4C[C@@H]5CC[C@@H](N5)[C@H]4F)nn3)c(O)cc2c(=O)n1C [Compound 114B]	MDR1-MDCK cell monolayers	94
CN(c1ccc(-c2cc3cnccc3cc2O)nn1)[C@H]1C[C@@H]2CCC[C@@H](N2)[C@H]1F [Compound 121B]	MDR1-MDCK cell monolayers	111

# input for lookup
Enquiry: For the compound Cc1nc2cc(-c3ccc(N(C)[C@@H]4C[C@H]5CC[C@H](N5)[C@@H]4F)nn3)c(O)cc2s1 [Compound 115A] , give its measured MDCK-MDR1: % Recov B-A value.
Return: 78

* * *

Here the recorded Papp A→B at 120 min, 5 μM is given for each entry.
System: MDR1 (P-gp)
assay: in vitro
cond: dog, MDCK-MDR1, pH 7.4
Respond with the bare value in ×10⁻⁶ cm/s.

molecule	unit abbrev	Papp A→B at 120 min, 5 μM
CC(=O)Nc1ccc(-c2ccc(N(C)[C@@H]3C[C@H]4CC[C@H](N4)[C@@H]3F)nn2)c(O)c1 (single isomer, unassigned) [Compound 32A]	×10⁻⁶ cm/s	0.34
Cn1cnc2cc(-c3ccc(N(C4CC4)[C@@H]4C[C@H]5CC[C@H](N5)[C@@H]4F)nn3)c(O)cc2c1=O [Compound 56A]	×10⁻⁶ cm/s	0.92
CN(c1ccc(-c2ccc(Oc3nccn3C)cc2O)nn1)[C@H]1C[C@@H]2CC[C@@H](N2)[C@H]1F (single isomer, unassigned) [Compound 123B]	×10⁻⁶ cm/s	0.66
CN(C)C(=O)c1cc2cc(O)c(-c3ccc(N(C)[C@H]4C[C@@H]5CC[C@H]([C@H]4F)N5C)nn3)cc2o1 (single isomer, unassigned) [Compound 106B]	×10⁻⁶ cm/s	1.61

Enquiry: For the molecule CN(C)C(=O)c1cc(O)c(-c2ccc(N(C)[C@H]3C[C@@H]4CC[C@H]([C@H]3F)N4C)nn2)cc1F (single isomer, unassigned) [Compound 104B] , give its measured Papp A→B at 120 min, 5 μM value.
Return: 0.89
